Recorded pEC50, one value per entry.
tested on: primary human T-cells; assay: IL2 secretion measurements in CD3-stimulated T-cells; assay type: cell-based; conditions: Homo sapiens, T-cell; isomer A; CD3 antibody-stimulated T-cells, IL2 in supernatant after 24 hours; read-out: Tcell IL2 CD3 EC50
pEC50: −log10 of the molar value.

Below are worked cases with known answers.
compound | recorded_result
CC(C)(C#N)c1nnc(-c2cc3c(cc2F)C(F)(F)C[C@@H](N)C(=O)N3Cc2ccc(-c3cc(C(F)(F)F)ccn3)cc2)o1 (single isomer, unassigned) | < 5.56
N[C@@H]1CC(F)(F)c2cc(F)c(-c3nnc(N4CCC(F)(F)C4)o3)cc2N(Cc2ccc(-n3cnc(C(F)(F)F)n3)cc2)C1=O (single isomer, unassigned) | < 5.56

Pending compound:
Task: May I ask what pEC50 has been recorded for CCN1CC(c2nnc(-c3cc4c(cc3F)C(F)(F)C[C@@H](N)C(=O)N4Cc3ccc(OC(F)(F)F)cc3)o2)CC(F)(F)C1 (single isomer, unassigned) ?
Output: < 5.00

----------
Recorded Emax, one value per entry.
test system: primary human T-cells; assay: T-cell proliferation assay (CellTiter-Glo); format: cell-based; conditions: Homo sapiens, T-cell, 120 h; isomer A; CD3 condition, 5 days; 20 μM reference compound A1 = 100%, DMSO neutral control; read-out: Emax proliferation (% activation)

Below are worked cases with known answers.
compound | assay_target | measurement_label | recorded_result
CC(C)(C#N)c1nnc(-c2cc3c(cc2F)C(F)(F)C[C@@H](N)C(=O)N3Cc2ccc(-c3ccc(C(F)(F)F)cc3)nc2)o1 (single isomer, unassigned) [Example 28] | primary human T-cells | Emax | 96%
CC(C)(C#N)c1nnc(-c2cc3c(cc2F)C(F)(F)C[C@@H](N)C(=O)N3Cc2ccc(-n3cc(C(F)(F)F)cn3)nc2F)o1 (single isomer, unassigned) [Example 45] | primary human T-cells | Emax | 67%
CC(C)(C#N)c1nnc(-c2cc3c(cc2F)C(F)(F)C[C@@H](N)C(=O)N3Cc2ccc(-c3ccc(OC(F)F)cn3)cc2)o1 (single isomer, unassigned) [Example 41] | primary human T-cells | Emax | 113%
N[C@@H]1CC(F)(F)c2cc(F)c(-c3nnc(N4CCCC4)o3)cc2N(Cc2ccc(-n3cnc(C(F)(F)F)n3)cc2)C1=O (single isomer, unassigned) [Example 21] | primary human T-cells | Emax | 43%

Pending compound:
Task: May I ask what Emax has been recorded for COC(=O)N1CC2CC(c3nnc(-c4cc5c(cc4F)C(F)(F)C[C@@H](N)C(=O)N5Cc4ccc(-c5ccc(C(F)(F)F)cn5)cc4)o3)(C2)C1 (single isomer, unassigned) [Example 35] ?
Output: 128%

----------
test system: primary human T-cells; test: T-cell proliferation assay (CellTiter-Glo); assay type: cell-based; details: Homo sapiens, T-cell, 120 h; isomer A; CD3 condition, 5 days; 20 μM reference compound A1 = 100%, DMSO neutral control; read-out: Emax proliferation (% activation)
measurement_label: Emax (%)
Use % as the unit, but write only the number.

Below are worked cases with known answers.
molecule | quantity_unit | Emax
CC(C)(C#N)c1nnc(-c2cc3c(cc2F)C(F)(F)C[C@@H](N)C(=O)N3Cc2ccc(-c3ccc(C(F)(F)F)cn3)cc2)o1 (single isomer, unassigned) | % | 152
CC(C)(C)c1nnc(-c2cc3c(cc2F)C(F)(F)CC(N)C(=O)N3Cc2ccc(OC(F)(F)F)cc2)o1 (stereo not drawn) | % | 74
CC(C)(C#N)c1nnc(-c2cc3c(cc2F)C(F)(F)C[C@@H](N)C(=O)N3Cc2ccc(-n3cc(OC(F)(F)F)cn3)cc2)o1 (single isomer, unassigned) | % | 105

Task: What measured Emax is associated with COc1ccc(-c2ccc(CN3C(=O)[C@H](N)CC(F)(F)c4cc(F)c(-c5nnc(C(C)(C)C#N)o5)cc43)cc2)cc1 (single isomer, unassigned) on primary human T-cells?
Output: 114

Task: What measured Emax is associated with N[C@@H]1CC(F)(F)c2cc(F)c(-c3nnc(N4CCC(F)(F)CC4)o3)cc2N(Cc2ccc(-c3noc(C(F)(F)F)n3)cc2)C1=O (single isomer, unassigned) on primary human T-cells?
Output: 108

Task: What measured Emax is associated with CC(C)(C#N)c1nnc(-c2cc3c(cc2F)C(F)(F)C[C@@H](N)C(=O)N3Cc2ccc(-n3ccc(C(F)(F)F)n3)cc2)o1 (single isomer, unassigned) on primary human T-cells?
Output: 94

Task: What measured Emax is associated with COCCN1CC(c2nnc(-c3cc4c(cc3F)C(F)(F)C[C@@H](N)C(=O)N4Cc3ccc(-c4ccc(C(F)(F)F)cn4)cc3)o2)CC(F)(F)C1 (single isomer, unassigned) on primary human T-cells?
Output: 75

Task: What measured Emax is associated with CC(C)(c1nnc(-c2cc3c(cc2F)C(F)(F)C[C@@H](N)C(=O)N3Cc2ccc(-n3cnc(C(F)(F)F)n3)cc2)o1)S(C)(=O)=O (single isomer, unassigned) on primary human T-cells?
Output: 98
